Biological target: cGMP-dependent protein kinase 1 (Homo sapiens);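 note: listed percent inhibition of PRKG1 is a mean value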
Sequence (whole entry): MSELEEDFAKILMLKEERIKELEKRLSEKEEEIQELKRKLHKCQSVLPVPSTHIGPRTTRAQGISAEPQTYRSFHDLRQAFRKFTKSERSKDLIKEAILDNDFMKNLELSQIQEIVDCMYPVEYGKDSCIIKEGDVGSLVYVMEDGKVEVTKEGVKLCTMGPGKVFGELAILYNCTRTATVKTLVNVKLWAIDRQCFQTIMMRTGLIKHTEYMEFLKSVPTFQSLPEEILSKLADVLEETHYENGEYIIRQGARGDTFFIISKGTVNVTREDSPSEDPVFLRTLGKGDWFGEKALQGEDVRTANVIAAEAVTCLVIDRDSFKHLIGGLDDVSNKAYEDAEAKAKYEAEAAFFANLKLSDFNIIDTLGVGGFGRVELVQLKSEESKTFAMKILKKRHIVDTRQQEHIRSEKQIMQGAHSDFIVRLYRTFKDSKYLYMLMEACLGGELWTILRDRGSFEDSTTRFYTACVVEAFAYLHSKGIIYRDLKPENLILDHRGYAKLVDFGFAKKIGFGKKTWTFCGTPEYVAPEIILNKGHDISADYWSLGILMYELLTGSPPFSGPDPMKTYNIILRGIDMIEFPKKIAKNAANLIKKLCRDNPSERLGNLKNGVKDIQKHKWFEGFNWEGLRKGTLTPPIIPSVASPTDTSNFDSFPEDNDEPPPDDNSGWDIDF
Conditions: at 1 µM
Measured Attribute: inhibition (%)
Numbers only; they are read as %.

INSERT INTO assay_data (compound_structure, unit_tag, recorded_number) VALUES
  ('Nc1nonc1-c1nc2cnccc2n1C1CCCCC1', '%', 61.2),
  ('NS(=O)(=O)c1ccc(N/C=C2\C(=O)Nc3ccc4ncsc4c32)cc1', '%', 16.7),
  ('CCn1c(-c2nonc2N)nc2c(C#CC(C)(C)O)ncc(OC[C@@H]3CCCN3)c21', '%', 76.4),
  ('Cc1cc(-c2ccco2)cc(C)c1/C=C/c1cncc(-c2nn[nH]n2)c1', '%', -0.46),
  ('NS(=O)(=O)c1ccc(-c2ccc3c(NC(=O)C4CC4)n[nH]c3c2)cc1', '%', 1.57);

// inhibition lookup, key: CCn1c(-c2nonc2N)nc2c(C#CCN)ncc(OCCCN)c21
38

Let us now turn to CCn1c(-c2nonc2N)nc2c(C#CC(C)(C)O)ncc(OCC3CCNCC3)c21
48.9

---

Tested on: Tyrosine-protein kinase ABL1 (Homo sapiens), P00519 [T315I]
Conditions: at 0.1 µM
Measured Attribute: inhibition (%)
Provide the reading as a plain figure in %.

Look up inhibition for this compound: COc1cccc(COc2cc(-n3cnc4ccccc43)sc2C(N)=O)c1
-1.92

---

Target: Macrophage-stimulating protein receptor (Homo sapiens);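 note: reported values are the mean percent inhibition of RON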
Conditions: at 0.1 µM
Measured Attribute: inhibition (%)
Supply the numeric figure in %, leaving out any unit text.

Study these solved cases before continuing.
INSERT INTO assay_data (compound_structure, measured_attribute, recorded_number) VALUES
  ('NC(=O)c1sc(-n2cnc3cc(C(F)(F)F)ccc32)cc1OCc1ccccc1Br', 'inhibition', 0.35),
  ('COc1cc2c(cc1Nc1nc(Nc3ccsc3C(N)=O)c3cc[nH]c3n1)N(C(=O)CN(C)C)CCC2', 'inhibition', 2.97),
  ('COc1cc(C=NNc2ncnc3c2cnn3Cc2ccccc2)ccc1O', 'inhibition', -1.32),
  ('NS(=O)(=O)c1ccc(N/C=C2\C(=O)Nc3ccc4ncsc4c32)cc1', 'inhibition', 7.83),
  ('CCn1c(-c2nonc2N)nc2c(C#CC(C)(C)O)ncc(OCC3CCNCC3)c21', 'inhibition', 0.01);

For COc1cccc(COc2cc(-n3cnc4ccccc43)sc2C(N)=O)c1 , what is its reported inhibition?
-1.15

And the next one, CCn1c(-c2nonc2N)nc2c(C#CC(C)(C)O)ncc(OC[C@@H]3CCCN3)c21 ?
1.97

---

Biological target: Dual specificity protein kinase CLK2 (Homo sapiens) (UniProt P49760);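 note: reported values are mean percent inhibition of CLK2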
Sequence (P49760 whole entry, looked up): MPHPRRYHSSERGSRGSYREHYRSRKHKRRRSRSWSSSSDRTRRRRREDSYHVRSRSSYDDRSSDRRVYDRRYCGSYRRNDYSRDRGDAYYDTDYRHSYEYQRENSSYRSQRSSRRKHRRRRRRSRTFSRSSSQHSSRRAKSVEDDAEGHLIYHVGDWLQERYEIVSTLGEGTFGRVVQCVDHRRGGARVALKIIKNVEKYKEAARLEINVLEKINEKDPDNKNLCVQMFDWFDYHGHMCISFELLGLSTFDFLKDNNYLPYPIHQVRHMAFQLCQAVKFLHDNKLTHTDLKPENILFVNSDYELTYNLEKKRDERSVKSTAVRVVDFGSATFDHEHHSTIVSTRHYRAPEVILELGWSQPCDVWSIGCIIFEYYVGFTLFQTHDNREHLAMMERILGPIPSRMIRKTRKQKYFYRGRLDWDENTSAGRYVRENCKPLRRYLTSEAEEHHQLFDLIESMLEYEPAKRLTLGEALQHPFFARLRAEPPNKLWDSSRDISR
Details: at 1 µM
Measured Attribute: inhibition (%)
// note: answer is a bare numeric in %

INSERT INTO results (compound_structure, unit_tag, recorded_number) VALUES
  ('COc1cccc(-n2ncc3c(N/N=C/c4ccncc4)ncnc32)c1', '%', 35),
  ('Fc1ccc(-c2ncn(C3CCNCC3)c2-c2ccnc(Oc3ccccc3)n2)cc1', '%', -0.83),
  ('NS(=O)(=O)c1ccc(-c2ccc3c(NC(=O)C4CC4)n[nH]c3c2)cc1', '%', -0.2),
  ('CCn1c(-c2nonc2N)nc2c(C#CC(C)(C)O)nc(O[C@@H](CN)c3ccccc3)cc21', '%', 56.3),
  ('CCn1c(-c2nonc2N)nc2c(C#CC(C)(C)O)ncc(OCC3CCNCC3)c21', '%', 29.4);

What inhibition value was documented for this molecule, Cc1cc(-c2ccco2)cc(C)c1/C=C/c1cncc(-c2nn[nH]n2)c1 ?
-2.94

Field entry: Nc1nonc1-c1nc2cnccc2n1C1CCCCC1
39.2

Please do the same for NC(=O)c1sc(-n2cnc3cc(C(F)(F)F)ccc32)cc1OCc1ccccc1Br as well.
0.1

Now the molecule CCn1c(-c2nonc2N)nc2c(C#CCN)ncc(OCCCN)c21
0.74

Continue with COc1cc(C=NNc2ncnc3c2cnn3Cc2ccccc2)ccc1O
3.62

---

Overview of reported inhibition across a group of molecules:
Molecular target: Mast/stem cell growth factor receptor Kit (Homo sapiens);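 note: values given as mean inhibition of KIT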
Details: at 1 µM
Dear colleague, please return just the value in %, with no unit written.

INSERT INTO results (compound_structure, measured_target, recorded_number) VALUES
  ('NC(=O)c1sc(-n2cnc3cc(C(F)(F)F)ccc32)cc1OCc1ccccc1Br', 'Mast/stem cell growth factor receptor Kit (Homo sapiens)', 1.77),
  ('CCn1c(-c2nonc2N)nc2c(C#CC(C)(C)O)ncc(OC[C@@H]3CCCN3)c21', 'Mast/stem cell growth factor receptor Kit (Homo sapiens)', -2.57);

Notebook entry, Mast/stem cell growth factor receptor Kit (Homo sapiens) assay: inhibition of CCn1c(-c2nonc2N)nc2c(C#CC(C)(C)O)nc(O[C@@H](CN)c3ccccc3)cc21 = ?
2.69

Ok, now CCn1c(-c2nonc2N)nc2c(C#CC(C)(C)O)ncc(OCC3CCNCC3)c21
8.48

Next molecule: CCn1c(-c2nonc2N)nc2c(C#CCN)ncc(OCCCN)c21
3.33

Try the molecule COc1cccc(-n2ncc3c(N/N=C/c4ccncc4)ncnc32)c1
57.2

Also, COc1cccc(COc2cc(-n3cnc4ccccc43)sc2C(N)=O)c1 please.
-3.97

---

Test system: Tyrosine-protein kinase ABL1 (Homo sapiens), P00519 [M351T]
Details: at 0.1 µM
Readings of inhibition for the listed compounds
Express your answer in %, writing the number without its unit.

Reference set, count: 5
INSERT INTO assay_data (compound_structure, unit_tag, recorded_number) VALUES
  ('CCn1c(-c2nonc2N)nc2c(C#CC(C)(C)O)ncc(OC[C@@H]3CCCN3)c21', '%', -0.07),
  ('COc1cc2c(cc1Nc1nc(Nc3ccsc3C(N)=O)c3cc[nH]c3n1)N(C(=O)CN(C)C)CCC2', '%', 1.67),
  ('COc1cccc(COc2cc(-n3cnc4ccccc43)sc2C(N)=O)c1', '%', -1.62),
  ('Fc1ccc(-c2ncn(C3CCNCC3)c2-c2ccnc(Oc3ccccc3)n2)cc1', '%', -0.31),
  ('COc1cc(C=NNc2ncnc3c2cnn3Cc2ccccc2)ccc1O', '%', 54.1);

Missing value: inhibition, Tyrosine-protein kinase ABL1 (Homo sapiens), P00519 [M351T], entry NC(=O)c1sc(-n2cnc3cc(C(F)(F)F)ccc32)cc1OCc1ccccc1Br . Fill in?
2.27

Consider next the compound CCn1c(-c2nonc2N)nc2c(C#CC(C)(C)O)nc(O[C@@H](CN)c3ccccc3)cc21 in the same way.
0.75

Repeat for the following compound: NS(=O)(=O)c1ccc(-c2ccc3c(NC(=O)C4CC4)n[nH]c3c2)cc1
3.23

Next compound up: CCn1c(-c2nonc2N)nc2c(C#CCN)ncc(OCCCN)c21
-1.57

# repeat for NS(=O)(=O)c1ccc(N/C=C2\C(=O)Nc3ccc4ncsc4c32)cc1
5.55

Next compound: CCn1c(-c2nonc2N)nc2c(C#CC(C)(C)O)ncc(OCC3CCNCC3)c21
-1.14

---

Target: Insulin-like growth factor 1 receptor (Homo sapiens)
Conditions: at 0.1 µM
inhibition reference
Write down the value, and be sure its unit follows.

INSERT INTO measurements (compound_structure, measured_attribute, result) VALUES
  ('CCn1c(-c2nonc2N)nc2c(C#CCN)ncc(OCCCN)c21', 'inhibition', '-5.07%'),
  ('COc1cc2c(cc1Nc1nc(Nc3ccsc3C(N)=O)c3cc[nH]c3n1)N(C(=O)CN(C)C)CCC2', 'inhibition', '99.3%');

Now for a further compound.
I'm curious: which inhibition was measured for NS(=O)(=O)c1ccc(-c2ccc3c(NC(=O)C4CC4)n[nH]c3c2)cc1 tested on Insulin-like growth factor 1 receptor (Homo sapiens)?;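 note: values are mean percent inhibition of IGF1R kinase activity, from the GSK published kinase inhibitor set (PKIS) screening panel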
0.89%
